System: bone marrow cells
assayMethodText: In vivo bone marrow CFU formation and bone marrow cellularity, dose dependent effect
Set-up: species or system C57BL/6 mice
particulars: Expt. 1; 5 μg twice daily i.p., 4 days
measurementName: Mean of Cellularity

# count of solved cases: 4
smilesStr: O=C(O[C@@H]1CN2CCC[C@@H](O)[C@@H]2[C@@H]1O)c1ccccc1
Mean of Cellularity: 2.91 × 10^7

smilesStr: CCCCCCCC(=O)O[C@@H]1CN2CCC[C@@H](O)[C@@H]2[C@@H]1O
Mean of Cellularity: 2.57 × 10^7

smilesStr: O[C@@H]1[C@H](O)[C@H](O)CN2C[C@@H](O)[C@@H](O)[C@@H]12
Mean of Cellularity: 2.28 × 10^7

smilesStr: Cc1ccc(C(=O)O[C@@H]2CN3CCC[C@@H](O)[C@@H]3[C@@H]2O)cc1
Mean of Cellularity: 2.22 × 10^7

// switching to the query compound
Form field Mean of Cellularity, entry O=C(O[C@@H]1CN2CCC[C@@H](O)[C@@H]2[C@@H]1O)c1ccc([N+](=O)[O-])cc1 : 2.68 × 10^7
